- Test system: HOP-62 NSCLC
- Assay Summary: NCI tumour cell line growth inhibition, 48 h
Exercise: state measured TGI for each of the molecules provided.

{"columns": ["Molecule", "Measured Metric", "Observed Result"],
 "data": [
  ["Oc1cc2c(cc1C(c1ccc3c(c1)OCO3)N1CCN(C(c3ccc4c(c3)OCO4)c3cc4c(cc3O)OCO4)CC1)OCO2 (stereo not given)", "TGI", "64.7 µM"],
  ["O=C(CSc1nc2ccc(I)cc2c(=O)n1Cc1ccccc1)NN1C(=O)CSC1c1ccccc1 (stereo not given)", "TGI", "48.5 µM"],
  ["CSC(=NC#N)S/C=C/C(=O)c1cccc2ccccc12", "TGI", "61.2 µM"],
  ["Cc1ccc2nc(-c3ccc(-c4nc5ccc(C)cc5o4)c(O)c3)oc2c1", "TGI", "> 100 µM"]
]}

Query: Endpoint output: TGI of `C=C(C[C@@H](O)[C@H](C)NC(=O)OCc1ccccc1)C(=O)OC(C)(C)C` . Value?
Reply: > 100 µM

---

- Tested on: SN12C renal
- Assay Summary: NCI tumour cell line growth inhibition, 48 h
Exercise: state measured GI50 for each of the compounds provided.

{"columns": ["Structure Notation", "GI50"],
 "data": [
  ["Clc1ccc(-c2nc(C(Cl)Cl)nc3cc(-c4ccccc4)nn23)cc1", "> 50 µM"],
  ["Cc1ccc(NC(=O)N2CCCCC2)cc1[N+](=O)[O-]", "> 100 µM"],
  ["CC(=O)Oc1ccccc1C(=O)NCCC[Se]C#N", "3.2 µM"]
]}

State the recorded GI50 for every item in the following list.
1. COc1ccc2c(c1)C(=O)c1c-2n(CCCN=[N+]=[N-])c(=O)c2cc(N)ccc12
2. CCCC(CCC)Oc1ccc(CCCC2=C(O)c3ccccc3C(=O)C2=O)cc1
3. OCc1ncc(-c2ccccc2)s1

Reply:
1. > 100 µM
2. 6.79 µM
3. > 100 µM

---

- Test system: HOP-62 NSCLC
- Assay Summary: NCI tumour cell line growth inhibition, 48 h
Measured Metric: GI50

{"columns": ["Compound", "Observed Result"],
 "data": [
  ["CC(=O)N1N=C(c2ccc(Nc3nc(Nc4ccc(F)cc4)nc(Nc4ccc(Cl)cc4)n3)cc2)CC1c1ccc(N(C)C)cc1 (stereo not given)", "3.25 µM"],
  ["CC(C)c1ccc(/C=N/N=C(N)N)cc1", "4.61 µM"],
  ["C=C1C(=O)O[C@H]2[C@H]1CC/C(COC(=O)C(=O)c1c[nH]c3ccc(Cl)cc13)=C\\CC[C@@]1(C)O[C@@H]21", "1.63 µM"],
  ["COc1cc2c(c(OC)c1OC)C(=O)c1c-2n(CCCN=[N+]=[N-])c(=O)c2cc([N+](=O)[O-])ccc12", "30.7 µM"],
  ["COc1ccccc1Nc1nc2ccccc2c2occc12", "24.5 µM"]
]}

State the recorded GI50 for every item in the following list.
1. COc1ccc(C2CC(c3cccc(OC)c3)=NN2C(=O)c2cc(OC)c(OC)c(OC)c2)cc1 (stereo not given)
2. O=C(c1ccccc1)c1ccc(O)c2ncccc12

Reply:
["> 23.1 µM", "5.31 µM"]

State the recorded GI50 for every item in the following list.
1. CSC(=NC#N)S/C=C/C(=O)c1cccc2ccccc12
2. Cc1ccc(N(/C=C/C(=O)C(F)(F)F)CC(=O)c2ccc(Cl)c(Cl)c2)cc1
3. O=C(O)c1cc2cc(O)ccc2[nH]1

Reply:
["34 µM", "12.3 µM", "> 100 µM"]

---

- System: SF-295 CNS
- Assay Summary: NCI tumour cell line growth inhibition, 48 h
Exercise: state measured TGI for each of the molecules provided.

Past entries and their recorded results:
{"columns": ["Molecule", "TGI"],
 "data": [
  ["CC(C)(C)c1cc(-c2c3nc(c(-c4cc(C(C)(C)C)cc(C(C)(C)C)c4)c4ccc([nH]4)c(-c4cc(C(C)(C)C)cc(C(C)(C)C)c4)c4nc(c(-c5cc(C(C)(C)C)cc(C(C)(C)C)c5)c5ccc2[nH]5)C=C4)C=C3)cc(C(C)(C)C)c1", "> 100 µM"],
  ["O=c1[nH]cc(COCC(O)CO)c(=O)[nH]1 (stereo not given)", "> 100 µM"],
  ["CCN(CC)c1ccc2cc(-c3csc(C)n3)c(=O)oc2c1", "> 100 µM"],
  ["CC(C)(C)OC(=O)NCC(=O)N(CCc1ccc(Cl)c(Cl)c1)CCN1CCCC1", "33.1 µM"],
  ["O=C(Nc1cc(C(F)(F)F)cc(C(F)(F)F)c1)Nc1ccc(OCc2nnc(-c3ccc(Cl)cc3)o2)c(F)c1", "6.91 µM"],
  ["O=C1O/C(=C(/Cl)c2c3ccccc3cc3ccccc23)c2ccccc21", "> 100 µM"],
  ["CCCC(CCC)Oc1ccc(CCCC2=C(O)c3ccccc3C(=O)C2=O)cc1", "10.4 µM"],
  ["CN(C)CCN=C1Nc2ccccc2C(=O)N2CSCC12 (stereo not given)", "> 100 µM"],
  ["O=C(c1ccc(Cl)c(Cl)c1)N(C(=O)N1CCN(c2ccccc2)CC1)S(=O)(=O)c1ccccc1", "> 100 µM"],
  ["O=C1COc2cc3c(cc2N1)SCCC(=O)N3", "> 100 µM"]
]}

State the recorded TGI for every item in the following list.
1. O=[N+]([O-])c1cc2ccc1OCc1cccc(n1)COc1ccc(cc1[N+](=O)[O-])C=NCCCCCCCCN=C2
2. CC1NCCc2c1[nH]c1cc(O)ccc21 (stereo not given)
3. NC(=NCCO)c1ccc(N2CCCN(c3ccc(C(N)=NCCO)cc3)CC2)cc1
4. C[N+]1(c2ccccc2)C=C(c2ccccc2)SC1=S (stereo not given)
5. CN(C)CCC(/C=C/c1ccccc1)=N\Nc1ccc(Cl)cc1
6. O=S1(=O)c2ccccc2-c2nccc3ccnc1c23
7. O=C(Nc1ccccc1[N+](=O)[O-])C(=O)C(C(=O)c1ccccc1-c1ccccc1)C1OC(=O)c2ccccc21 (stereo not given)
8. Brc1ccc(N=Nc2ccc3ccccc3n2)cc1

Reply:
> 100 µM
> 100 µM
> 100 µM
> 100 µM
13.1 µM
> 100 µM
39.3 µM
> 100 µM

State the recorded TGI for every item in the following list.
1. CC(=O)Oc1ccccc1C(=O)NCCC[Se]C#N
2. CC1(C)N([O-])[N+](=O)C1(Br)c1ccccc1 (stereo not given)

Reply:
1: 3.67 µM; 2: > 100 µM

---

- Tested on: 786-0 renal
- Assay Summary: NCI tumour cell line growth inhibition, 48 h
Exercise: state measured TGI for each of the molecules provided.

Past entries and their recorded results:
{"columns": ["Molecule", "TGI"],
 "data": [
  ["Clc1ccc(N/N=C(\\c2ccccc2)c2ccccn2)nc1", "15.8 µM"],
  ["CC(C)(C)OC(=O)NC(Cc1ccc(OCc2ccccc2)cn1)C(=O)O (stereo unspecified)", "> 100 µM"],
  ["CC(=O)Oc1cc(/C=C/c2ccc(O)cc2)cc(OC(C)=O)c1", "> 100 µM"],
  ["N#Cc1nc(-c2ccc(-c3nc(C#N)c(N)o3)cc2)oc1N", "> 10 µM"]
]}

State the recorded TGI for every item in the following list.
1. O=c1[nH]cc(COCC(O)CO)c(=O)[nH]1 (stereo unspecified)
2. Cc1cccc(Cl)c1NC(=O)c1cccc([N+](=O)[O-])c1O

Reply:
["> 100 µM", "> 100 µM"]

---

- Test system: RXF 393 renal
- Assay Summary: NCI tumour cell line growth inhibition, 48 h
Measured Metric: TGI

Past entries and their recorded results:
{"columns": ["Molecule", "Subject Of Test", "TGI"],
 "data": [
  ["COc1ccc(/C(=C\\c2cc(OC)c(OC)c(OC)c2)C(=O)O)cc1", "RXF 393 renal", "39.7 µM"],
  ["O=C(NN1C(=O)C(Cl)C1c1cccc(Cl)c1)c1ccccc1O (centres undefined)", "RXF 393 renal", "> 100 µM"],
  ["CCP(C)(C)=O", "RXF 393 renal", "> 100 µM"]
]}

Query: Endpoint output: TGI of `Cn1ccc2c3c(=O)cc[nH]c3ccc21` . Value?
Reply: > 100 µM

---

Exercise: state measured TGI for each of the molecules provided.
- System: M14 melanoma
- Assay Summary: NCI tumour cell line growth inhibition, 48 h

Past entries and their recorded results:
{"columns": ["Molecule", "Measured Metric", "Observed Result"],
 "data": [
  ["COC(=O)C1Cc2c([nH]c3ccccc23)-c2[nH]c3ccccc3c2CC(NC(C)=O)C(=O)NCC(=O)NCC(=O)N1 (stereo not given)", "TGI", "> 100 µM"],
  ["COC(=O)C1=CO[C@@H](OC2OC(CO)C(O)C(O)C2O)[C@@H]2[C@H](C)[C@@H](O)[C@@H](O)[C@]12O (stereo not given in full)", "TGI", "> 100 µM"],
  ["O=C1C(CO)=C[C@@H](O)[C@H]2O[C@@H]12", "TGI", "> 100 µM"]
]}

State the recorded TGI for every item in the following list.
1. CCOC(=O)C1=C(c2ccccc2)NC(c2ccccc2)=C(C(=O)OCC)c2c1c(=O)cc[nH]c2=O
2. COc1cccc(N2C(=O)C3c4[nH]c5ccc(C)cc5c4C4CCC(C)CC4C3C2=O)c1 (stereo not given)

Reply:
["> 100 µM", "> 100 µM"]
